Entries and their IC50
- testedSystem: EGFR T790M L858R (Homo sapiens, UniProt P00533, L858R/T790M)
- Sequence (P00533 25-1210 T790M/L858R): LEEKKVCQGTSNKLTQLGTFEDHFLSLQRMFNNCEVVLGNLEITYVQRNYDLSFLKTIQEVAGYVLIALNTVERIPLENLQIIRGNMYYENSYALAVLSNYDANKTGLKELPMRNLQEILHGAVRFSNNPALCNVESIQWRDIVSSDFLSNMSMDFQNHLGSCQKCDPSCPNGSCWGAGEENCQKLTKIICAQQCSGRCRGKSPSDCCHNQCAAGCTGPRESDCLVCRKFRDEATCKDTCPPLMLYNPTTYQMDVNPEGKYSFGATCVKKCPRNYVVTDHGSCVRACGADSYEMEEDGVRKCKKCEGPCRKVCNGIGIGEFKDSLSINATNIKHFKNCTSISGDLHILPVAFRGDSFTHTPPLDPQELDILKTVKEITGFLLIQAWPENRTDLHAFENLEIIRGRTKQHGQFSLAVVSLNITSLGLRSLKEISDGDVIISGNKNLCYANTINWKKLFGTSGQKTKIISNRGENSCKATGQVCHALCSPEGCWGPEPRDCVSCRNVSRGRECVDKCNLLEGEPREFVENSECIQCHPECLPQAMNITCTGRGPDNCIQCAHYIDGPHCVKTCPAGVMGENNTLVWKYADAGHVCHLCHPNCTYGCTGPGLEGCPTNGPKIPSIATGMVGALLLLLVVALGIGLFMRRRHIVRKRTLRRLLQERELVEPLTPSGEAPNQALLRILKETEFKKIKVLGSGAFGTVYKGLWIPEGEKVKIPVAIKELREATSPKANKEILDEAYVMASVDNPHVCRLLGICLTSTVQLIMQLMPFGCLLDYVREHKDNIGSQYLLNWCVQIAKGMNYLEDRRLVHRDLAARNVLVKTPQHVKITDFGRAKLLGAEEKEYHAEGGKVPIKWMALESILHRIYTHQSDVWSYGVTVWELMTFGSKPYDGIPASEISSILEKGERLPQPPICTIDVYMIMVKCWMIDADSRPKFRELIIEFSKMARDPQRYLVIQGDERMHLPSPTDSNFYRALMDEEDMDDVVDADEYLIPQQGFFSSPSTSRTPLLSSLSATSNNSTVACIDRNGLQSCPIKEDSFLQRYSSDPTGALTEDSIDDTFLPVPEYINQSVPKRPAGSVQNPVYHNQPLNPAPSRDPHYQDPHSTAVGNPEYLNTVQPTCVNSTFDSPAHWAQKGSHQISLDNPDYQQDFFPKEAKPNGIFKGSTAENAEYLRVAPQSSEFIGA
- procedureSummary: Lance assay, EGFR T790M L858R
- settings: biochemical Lance assay

Look up and report measured IC50 (EGFR T790M L858R (Homo sapiens, UniProt P00533, L858R/T790M)) for the following compound: C=CC(=O)Nc1cc(-c2c(-c3cnn(CCC)c3)[nH]c3ncc(C(=O)OC(C)C)c(C)c23)ccc1C 0.05 to 0.1 µM

Enter measured IC50, system EGFR T790M L858R (Homo sapiens, UniProt P00533, L858R/T790M), for the compound shown: C=CC(=O)Nc1cc(-c2c(-c3cnn(CC)c3)[nH]c3ncc(C(=O)OC(C)C)cc23)cc(F)c1C ≤ 0.05 µM

Write down measured IC50 (EGFR T790M L858R (Homo sapiens, UniProt P00533, L858R/T790M)) for this compound. C=CC(=O)Nc1cc(-c2c(-c3cnn(C)c3)[nH]c3ncc(OCC(C)C)cc23)ccc1C [Example 4, 2,2,2-trifluoroacetate] 0.05 to 0.1 µM

Provide IC50, tested on EGFR T790M L858R (Homo sapiens, UniProt P00533, L858R/T790M), for C=CC(=O)Nc1cc(-c2c(-c3cnn(C(C)C)c3)[nH]c3ncc(C(=O)OC(C)C)c(C)c23)ccc1C . 0.05 to 0.1 µM
